Cited source: the supplement of paper PMC10567573

B1: TPPP (parent)
chain: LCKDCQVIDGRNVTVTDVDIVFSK

Variants of: B1
assay overview: protein stability index of a GFP-peptide fusion (GPS, HEK-293T) (PSI 1-6); higher = more stable;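 further: lentivirally expressed fusions sorted by FACS into six bins by GFP to DsRed ratio, PSI derived from sequencing read proportions per bin multiplied by bin number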
settings: c terminus: a fixed tail appended
measured endpoint: protein stability index
Response field accepts a number only; no unit should be typed.

These recorded examples may help you get a feel for the data.
{"sequence change": "V15P", "protein stability index": 4.11}
{"sequence change": "I20T", "protein stability index": 3.06}
{"sequence change": "N12L", "protein stability index": 2.57}
{"sequence change": "V18H", "protein stability index": 2.91}
{"sequence change": "G10D", "protein stability index": 3.35}

Kindly note the recorded protein stability index for V15Q , which is 2.92

Kindly note the recorded protein stability index for S23P , which is 2.98

Kindly note the recorded protein stability index for F22W , which is 2.3

Kindly note the recorded protein stability index for T16A , which is 2.23

Kindly note the recorded protein stability index for D4Q , which is 1.97

Kindly note the recorded protein stability index for G10E , which is 2.55

Kindly note the recorded protein stability index for Q6T , which is 2.7

Kindly note the recorded protein stability index for I20D , which is 3.46
